# Test system: Saccharomyces cerevisiae;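 note: PSI is a weighted mean of sequencing reads over stability bins, variants kept only with over 10 reads, mCherry proximal and sfGFP distal, peptide attached via GGGS linker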
# PROTOCOL_NOTES: protein stability index of tFT-peptide fusion (C-terminal peptide) (PSI (0-1 scale)); higher = more stable (slower turnover)
# EXPERIMENTAL_PARAMETERS: genetic background: das1 deletion; temperature: 37 C
protein stability index of 0.6 or higher: t. Under 0.6: f.

Query: Does protein stability index meet or surpass 0.6 for PLSSHIPVHEAR ?
Response: t

Query: Does protein stability index meet or surpass 0.6 for RLMLSWLALRRC ?
Response: t

Query: Does protein stability index meet or surpass 0.6 for GGYIINRWRTKN ?
Response: t

Query: Does protein stability index meet or surpass 0.6 for CGSLDLPHQCLL ?
Response: t

Query: Does protein stability index meet or surpass 0.6 for LLAWLHTVQRVG ?
Response: t

Query: Does protein stability index meet or surpass 0.6 for VLLSFVFCGWVR ?
Response: f

Query: Does protein stability index meet or surpass 0.6 for HANPGTFGPCTR ?
Response: t

Query: Does protein stability index meet or surpass 0.6 for SLFPHIFFFFFA ?
Response: f

Query: Does protein stability index meet or surpass 0.6 for IIIRVTILCEQF ?
Response: f

Query: Does protein stability index meet or surpass 0.6 for SVVLCRFVLRIF ?
Response: f

Query: Does protein stability index meet or surpass 0.6 for FTGLCQGLWLGW ?
Response: t

Query: Does protein stability index meet or surpass 0.6 for LLFYSYFFFVLY ?
Response: f

Query: Does protein stability index meet or surpass 0.6 for IFLLLRRIIALS ?
Response: f

Query: Does protein stability index meet or surpass 0.6 for SCLVLDYCFSLV ?
Response: t

Query: Does protein stability index meet or surpass 0.6 for HLGNTMIKKLIG ?
Response: t

Query: Does protein stability index meet or surpass 0.6 for MFWKFVFRGFWF ?
Response: t

Query: Does protein stability index meet or surpass 0.6 for RKRTILVIIVVK ?
Response: f

Query: Does protein stability index meet or surpass 0.6 for VSVQVRCCPWVG ?
Response: t
